Measured Target: peroxisome proliferator-activated receptor-γ (PPARγ) (Homo sapiens, UniProt P37231)
Sequence (P37231 223-505 limits assumed): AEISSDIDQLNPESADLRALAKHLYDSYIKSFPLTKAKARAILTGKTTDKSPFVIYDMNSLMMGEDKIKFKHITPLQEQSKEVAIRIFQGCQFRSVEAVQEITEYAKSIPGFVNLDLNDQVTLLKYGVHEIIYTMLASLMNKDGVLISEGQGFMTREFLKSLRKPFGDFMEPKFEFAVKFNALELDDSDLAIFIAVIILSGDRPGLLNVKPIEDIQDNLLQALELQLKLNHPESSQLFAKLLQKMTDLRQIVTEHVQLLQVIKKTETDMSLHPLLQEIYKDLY
Procedure Text: SPR
Format: binding
Measurement Name: Kd

[
  {
    "Molecule": "CC(C)/N=c1\\cc2n(-c3ccc(Cl)cc3)c3ccccc3nc-2cc1Nc1ccc(Cl)cc1 [CFZ, clofazimine]",
    "Measurement Name": "Kd",
    "Result": "0.079 µM"
  }
]
